These data points were gathered from patent US20170052184A1.

Property: expected percent binding; scope: individual binders
Target: T1, HCV Core1-169 (hepatitis C virus (HCV-1), UniProt P26664 1-169)
T1 sequence: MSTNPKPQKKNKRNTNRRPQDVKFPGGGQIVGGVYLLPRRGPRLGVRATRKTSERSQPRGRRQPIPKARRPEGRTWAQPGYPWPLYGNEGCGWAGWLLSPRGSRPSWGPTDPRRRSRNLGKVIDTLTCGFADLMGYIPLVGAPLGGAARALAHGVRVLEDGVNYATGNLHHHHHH
Experiment: SPR sandwich, capture mAb C11-14

{"Binder": "HCV 208A-442 (antibody, V domains shown) VH: DVQLQESGPGLVNPSQSLSLTCSVTGYSITSGYYWIWIRQFPGNKLEWMGYIKYDGGNNYSPSLKNRISIARDTSKNQFFLKLNSVTIEDTATYYCTRGSDSFDYWGQGTTLTVSS VL: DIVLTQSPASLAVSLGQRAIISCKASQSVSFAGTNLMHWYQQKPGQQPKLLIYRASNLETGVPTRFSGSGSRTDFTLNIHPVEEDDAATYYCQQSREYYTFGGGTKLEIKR", "expected percent binding": "≤ 1%"}
{"Binder": "HCV 208B-515 (antibody, V domains shown) VH: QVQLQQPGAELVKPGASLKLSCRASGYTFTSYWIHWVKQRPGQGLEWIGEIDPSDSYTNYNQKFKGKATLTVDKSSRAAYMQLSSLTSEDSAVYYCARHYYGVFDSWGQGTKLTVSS VL: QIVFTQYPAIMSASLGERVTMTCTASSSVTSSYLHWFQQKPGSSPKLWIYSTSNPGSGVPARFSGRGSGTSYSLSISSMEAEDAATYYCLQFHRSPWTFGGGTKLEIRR", "expected percent binding": "≤ 1%"}

# context switch: different binder, same expected percent binding
Quick check: expected percent binding of HCV 208A-422 (antibody, V domains shown) VH: DVQLQESGPGLVNPSQSLSLTCSVTGYSITSGYYWIWIQQSPGNKLEWMGYIKYDGGNNYSPSLKNRISIARDTSKNQCFLKLNSVTIEDTATYYCTRGSDSFDYWGQGTTLTVSS VL: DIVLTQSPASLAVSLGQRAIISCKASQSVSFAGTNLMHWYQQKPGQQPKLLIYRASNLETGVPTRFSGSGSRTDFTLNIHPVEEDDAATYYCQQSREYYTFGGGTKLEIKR ? ≤ 1%
